This collection of values is drawn from paper PMC5735979.

assay: Pharmacokinetics study after single oral dose of HP; type: in vivo, C57BL/6 mice; settings: male, C57BL/6, mouse; plasma, single oral dose of 50 mg/kg HP, mice, n = 5
Answer each item with its documented AUC(0-t).
Supply the numeric figure in µM·h, leaving out any unit text.

Which AUC(0-t) is reported for this compound? O=c1ccc2cc(O)c(O)cc2o1 [Esculetin, esculetin] 6.27

Which AUC(0-t) is reported for this compound? O=c1ccc2ccc(O)cc2o1 [Umbelliferone, umbelliferone] 11.8

---

assay: Pharmacokinetics study after single oral dose of HP; format: in vivo, C57BL/6 mice; settings: male, C57BL/6, mouse, in vivo; 0.5 h after single oral dose of 50 mg/kg HP, mice, mean ± SD, n = 5; read-out: Blood drug concentration
Assay readout: concentration at 0.5 h (µM)
Supply the numeric figure in µM, leaving out any unit text.

Which concentration at 0.5 h is reported for this molecule? O=c1ccc2ccc(O[C@@H]3O[C@H](CO)[C@@H](O)[C@H](O)[C@H]3O)cc2o1 12.6
